The measurements presented in this section are drawn from patent US8772494B2.

target: MTP (Homo sapiens, UniProt P55157); test: MTP assay (triglyceride transfer from donor to acceptor vesicles); format: biochemical; details: MTP activity, percent triglyceride transfer, 37° C.; read-out: pIC50 values (= −log IC50 value) (converted)
Sequence (P55157 19-894, species assumed): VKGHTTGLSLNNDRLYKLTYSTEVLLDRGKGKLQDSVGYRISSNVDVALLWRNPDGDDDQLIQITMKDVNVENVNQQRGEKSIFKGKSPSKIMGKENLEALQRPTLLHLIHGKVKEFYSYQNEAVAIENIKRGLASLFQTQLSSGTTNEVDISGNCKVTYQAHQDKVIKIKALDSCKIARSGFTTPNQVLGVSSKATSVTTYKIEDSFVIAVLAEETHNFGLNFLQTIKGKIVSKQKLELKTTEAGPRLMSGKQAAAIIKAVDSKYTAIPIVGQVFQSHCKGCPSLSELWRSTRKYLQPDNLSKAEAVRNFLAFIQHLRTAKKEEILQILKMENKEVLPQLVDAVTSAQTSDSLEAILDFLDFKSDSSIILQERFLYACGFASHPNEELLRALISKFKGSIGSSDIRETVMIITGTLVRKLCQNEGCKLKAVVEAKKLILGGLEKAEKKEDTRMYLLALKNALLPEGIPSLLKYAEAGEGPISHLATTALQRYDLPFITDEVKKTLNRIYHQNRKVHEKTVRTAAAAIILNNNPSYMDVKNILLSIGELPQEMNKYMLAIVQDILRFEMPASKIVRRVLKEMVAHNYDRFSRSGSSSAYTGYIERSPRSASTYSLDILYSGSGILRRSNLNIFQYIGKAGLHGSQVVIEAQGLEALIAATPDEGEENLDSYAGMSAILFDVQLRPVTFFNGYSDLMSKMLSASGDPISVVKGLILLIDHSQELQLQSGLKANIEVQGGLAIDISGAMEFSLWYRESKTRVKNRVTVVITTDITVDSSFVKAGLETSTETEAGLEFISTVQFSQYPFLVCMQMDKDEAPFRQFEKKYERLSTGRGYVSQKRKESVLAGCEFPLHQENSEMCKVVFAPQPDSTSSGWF
Sequence (P07237 18-508 partner, species assumed): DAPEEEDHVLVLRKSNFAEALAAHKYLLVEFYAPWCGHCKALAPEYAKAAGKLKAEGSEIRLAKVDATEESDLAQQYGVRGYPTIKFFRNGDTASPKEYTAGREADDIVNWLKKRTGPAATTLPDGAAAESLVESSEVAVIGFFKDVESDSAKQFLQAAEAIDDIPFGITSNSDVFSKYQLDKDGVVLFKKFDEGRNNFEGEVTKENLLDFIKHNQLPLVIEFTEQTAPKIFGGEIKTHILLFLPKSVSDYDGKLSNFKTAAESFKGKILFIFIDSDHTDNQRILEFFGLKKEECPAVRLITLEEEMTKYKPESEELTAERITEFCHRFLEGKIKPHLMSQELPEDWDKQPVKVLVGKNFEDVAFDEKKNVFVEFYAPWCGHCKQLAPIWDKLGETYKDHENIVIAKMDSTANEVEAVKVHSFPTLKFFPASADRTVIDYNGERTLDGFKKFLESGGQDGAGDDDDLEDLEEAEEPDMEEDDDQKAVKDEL
RESULT TYPE: IC50 (nM)

Example entries begin here.
# COMPOUND, IC50 [nM]
rows = [
    ("COC(=O)CNC(=O)CC1CCN(c2ccc(NC(=O)c3cccc(C)c3-c3ccc(C(F)(F)F)cc3)cc2)CC1 [Compound 43]", 10.4),
    ("COC(=O)C(C)NC(=O)CC1CCN(c2ccc(NC(=O)c3ccccc3-c3ccc(C(F)(F)F)cc3)cc2)CC1 (stereo not shown) [Compound 3]", 7.82),
]

(I) CCNC(=O)COC(=O)CC1CCN(c2ccc(NC(=O)c3cccc(C)c3-c3ccc(C(F)(F)F)cc3)cc2)CC1 [Compound 51]
(II) CCOC(=O)[C@@H](NC(=O)CC1CCN(c2ccc(NC(=O)c3ccccc3-c3ccc(C(F)(F)F)cc3)cc2)CC1)c1ccccc1 [Compound 22]
Which gives the smaller IC50 number: I or II ? Identify your pick by its label.
I
(I: 6.04 nM, II: 8.93 nM)
